Values were extracted from ChEMBL document CHEMBL4130457.

test: Terminal trough concentration in OVA-induced Brown Norway rat plasma at 3 umol/kg, po bid measured 12 hrs post last dose; format: ADME, organism-based; details: read-out: Cmin
readoutKind: concentration at 12 h (nM)
API: value field is a number in nM; no unit string.

[ask] Give concentration at 12 h for the following compound: COc1nccnc1NS(=O)(=O)c1cccc(Cl)c1Cl
[reply] 33

---

Target: C-C chemokine receptor type 4 (Homo sapiens, UniProt P51679)
Sequence (P51679 whole entry): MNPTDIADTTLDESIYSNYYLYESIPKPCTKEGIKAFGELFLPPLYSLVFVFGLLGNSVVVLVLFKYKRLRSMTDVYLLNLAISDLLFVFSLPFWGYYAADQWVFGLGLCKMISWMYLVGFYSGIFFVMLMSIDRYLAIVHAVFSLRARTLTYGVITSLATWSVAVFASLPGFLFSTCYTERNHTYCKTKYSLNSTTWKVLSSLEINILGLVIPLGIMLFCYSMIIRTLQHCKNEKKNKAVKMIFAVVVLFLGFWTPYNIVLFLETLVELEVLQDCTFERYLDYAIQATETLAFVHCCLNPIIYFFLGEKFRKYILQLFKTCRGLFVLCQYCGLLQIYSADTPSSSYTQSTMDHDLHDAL
Test: Antagonist activity at human CCR4 expressed in CHO cells coexpressing CD4+ assessed as inhibition of CCL22 induced Ca2+ mobilization
Format: functional, cell-based
readoutKind: IC50 (nM)
API: value field is a number in nM; no unit string.

[ask] Give IC50 for the following compound: COc1nccnc1NS(=O)(=O)c1cccc(Cl)c1Cl
[reply] 31.6

---

experiment: Lipophilicity, log D of the compound; assay type: physicochemical; conditions: octanol/water
Measured logD, listed per entry.
Output: the number by itself.

Example cases with answers are listed next.
COc1nc(Br)cnc1NS(=O)(=O)c1ccc(Cl)s1 :: 1.1
COc1nccnc1NS(=O)(=O)c1cccc(Cl)c1Cl :: 0.35

[ask] Give logD for the following molecule: COc1nc(F)cnc1NS(=O)(=O)c1cccc(Cl)c1Cl
[reply] 0.6

---

test: Lipophilicity, log P of the compound; format: physicochemical; details: octanol/water
Measured logP, listed per entry.
Output: the number by itself.

COc1nc(CO)cnc1NS(=O)(=O)c1cccc(Cl)c1Cl :: 2.1
COc1nc(CO)c(Cl)nc1NS(=O)(=O)c1cccc(Cl)c1Cl :: 3.2
COc1ncc(Cl)nc1NS(=O)(=O)c1cccc(Cl)c1Cl :: 4.5

Now, please, on to the next compound.
[ask] Give logP for the following compound: COc1ncc(F)nc1NS(=O)(=O)c1cccc(Cl)c1Cl
[reply] 3.3

---

target: UniProt P51679; assay: Antagonist activity at recombinant human CCR4 expressed in CHO-K1 cells assessed as inhibition of CCL22 induced Ca2+ mobilization after 2 hrs by FMAT based fluorescence assay; format: functional, cell-based
Measured IC50, listed per entry.
API: value field is a number in nM; no unit string.

Example cases with answers are listed next.
COc1nccnc1NS(=O)(=O)c1scc(Cl)c1Cl :: 20
O=S(=O)(Nc1ncc(Cl)nc1OCc1cccc(Br)c1)c1cccc(Cl)c1Cl :: 3.98
COc1nc(CO)c(C)nc1NS(=O)(=O)c1cccc(Cl)c1Cl :: 39.8
COc1ncc(F)nc1NS(=O)(=O)c1cccc(Cl)c1Cl :: 3.98
CCc1nc(Br)cnc1NS(=O)(=O)c1ccc(Cl)s1 :: 5010

[ask] Give IC50 for the following molecule: COc1nc(Br)cnc1NS(=O)(=O)c1sccc1-c1ccccc1
[reply] 1000

---

Measured bioavailability, listed per entry.
assay: Oral bioavailability in dog at 9 umol/kg; type: ADME, organism-based, Canis lupus familiaris; settings: in vivo
API: value field is a number in %; no unit string.

COc1nccnc1NS(=O)(=O)c1cccc(Cl)c1Cl :: 100

[ask] Give bioavailability for the following compound: COc1nc(F)cnc1NS(=O)(=O)c1cccc(Cl)c1Cl
[reply] 100

---

assay: Protein binding in human plasma; type: ADME, cell-free; settings: read-out: PPB (converted)
readoutKind: fraction unbound

[ask] Give fraction unbound for the following compound: COc1nc(C)cnc1NS(=O)(=O)c1cccc(Cl)c1Cl
[reply] 0.0035

[ask] Give fraction unbound for the following compound: COc1nccnc1NS(=O)(=O)c1scc(Cl)c1Cl
[reply] 0.025

[ask] Give fraction unbound for the following compound: COc1ncc(Cl)nc1NS(=O)(=O)c1cccc(Cl)c1Cl
[reply] < 0.001

[ask] Give fraction unbound for the following compound: COc1nc(F)c(F)nc1NS(=O)(=O)c1cccc(Cl)c1Cl
[reply] < 0.002

[ask] Give fraction unbound for the following compound: CCOc1cnc(NS(=O)(=O)c2cccc(Cl)c2Cl)c(OC)n1
[reply] < 0.001

---

molecular target: C-C chemokine receptor type 4 (Mus musculus, UniProt P51680); experiment: Antagonist activity at mouse CCR4
Sequence (P51680 whole entry): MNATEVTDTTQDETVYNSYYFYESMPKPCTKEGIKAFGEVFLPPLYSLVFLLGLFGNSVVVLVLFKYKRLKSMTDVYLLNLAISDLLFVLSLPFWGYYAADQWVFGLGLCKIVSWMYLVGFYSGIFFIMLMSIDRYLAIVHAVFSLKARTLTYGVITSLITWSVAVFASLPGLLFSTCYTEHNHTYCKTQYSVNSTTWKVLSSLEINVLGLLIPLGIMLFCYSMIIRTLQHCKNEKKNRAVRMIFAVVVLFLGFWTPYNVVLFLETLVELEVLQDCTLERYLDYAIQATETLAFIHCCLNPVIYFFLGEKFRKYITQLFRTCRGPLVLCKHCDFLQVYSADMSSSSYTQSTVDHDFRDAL
readoutKind: pIC50
Just so you know, pIC50 here is -log10 of the concentration in molar units; reply with that number alone.

Example cases with answers are listed next.
COc1nc(F)cnc1NS(=O)(=O)c1cccc(Cl)c1Cl :: 9.00
COc1nccnc1NS(=O)(=O)c1cccc(Cl)c1Cl :: 8.00

Now, please, on to the next compound.
[ask] GET pIC50 where system = C-C chemokine receptor type 4 (Mus musculus, UniProt P51680) and item = COc1nc(Br)cnc1NS(=O)(=O)c1ccc(Cl)s1
[reply] 8.30

---

biological target: C-C chemokine receptor type 4 (Canis lupus familiaris, UniProt Q8MJW8)
Sequence (Q8MJW8 whole entry): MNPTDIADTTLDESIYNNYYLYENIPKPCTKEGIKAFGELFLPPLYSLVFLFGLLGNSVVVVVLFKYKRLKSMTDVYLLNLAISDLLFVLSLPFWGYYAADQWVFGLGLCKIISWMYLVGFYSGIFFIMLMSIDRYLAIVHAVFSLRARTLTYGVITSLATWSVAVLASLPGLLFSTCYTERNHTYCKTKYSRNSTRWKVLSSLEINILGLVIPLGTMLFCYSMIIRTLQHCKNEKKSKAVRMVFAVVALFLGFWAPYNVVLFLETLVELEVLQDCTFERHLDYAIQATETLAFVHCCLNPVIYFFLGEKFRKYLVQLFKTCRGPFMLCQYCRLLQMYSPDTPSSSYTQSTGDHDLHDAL
readoutKind: IC50 (nM)
API: value field is a number in nM; no unit string.

COc1nccnc1NS(=O)(=O)c1cccc(Cl)c1Cl :: 25.1

Now, please, on to the next compound.
[ask] GET IC50 where system = C-C chemokine receptor type 4 (Canis lupus familiaris, UniProt Q8MJW8) and item = COc1nc(F)cnc1NS(=O)(=O)c1cccc(Cl)c1Cl
[reply] 3.16

---

assay: Half life in dog at 9 umol/kg, po or 3 umol/kg, iv; format: ADME, organism-based, Canis lupus familiaris; conditions: in vivo
Measured half-life, listed per entry.
API: value field is a number in min; no unit string.

COc1nc(F)cnc1NS(=O)(=O)c1cccc(Cl)c1Cl :: 30

Now, please, on to the next compound.
[ask] Give half-life for the following compound: COc1nccnc1NS(=O)(=O)c1cccc(Cl)c1Cl
[reply] 60

---

experiment: Terminal trough concentration in OVA-induced Brown Norway rat plasma at 7.5 umol/kg, po bid measured 12 hrs post last dose; assay type: ADME, organism-based; conditions: read-out: Cmin
readoutKind: concentration at 12 h
For clarity, give the value followed by its unit.

[ask] Give concentration at 12 h for the following compound: COc1nccnc1NS(=O)(=O)c1cccc(Cl)c1Cl
[reply] 0.14 µM

---

Measured Vd, listed per entry.
assay: Volume of distribution at steady state in rat at 9 umol/kg, po or 3 umol/kg, iv; format: ADME, organism-based; conditions: in vivo, read-out: Vdss
API: value field is a number in L/kg; no unit string.

COc1nc(F)cnc1NS(=O)(=O)c1cccc(Cl)c1Cl :: 0.2

Now, please, on to the next molecule.
[ask] Give Vd for the following molecule: COc1nccnc1NS(=O)(=O)c1cccc(Cl)c1Cl
[reply] 0.2

---

assay: Solubility of the compound; format: physicochemical
readoutKind: solubility
For clarity, give the value followed by its unit.

Example cases with answers are listed next.
COc1nccnc1NS(=O)(=O)c1cccc(Cl)c1Cl :: 1500 µg/mL
COc1nc(Br)cnc1NS(=O)(=O)c1ccc(Cl)s1 :: 340 µg/mL

[ask] Give solubility for the following compound: COc1nc(F)cnc1NS(=O)(=O)c1cccc(Cl)c1Cl
[reply] 1300 µg/mL

---

test: Protein binding in rat plasma; format: ADME, cell-free; conditions: read-out: PPB (converted)
readoutKind: fraction unbound
Output: the number by itself.

[ask] Give fraction unbound for the following compound: COc1nc(Br)cnc1NS(=O)(=O)c1ccc(Cl)s1
[reply] 0.0015

---

target: C-C chemokine receptor type 4 (Homo sapiens, UniProt P51679); assay: Antagonist activity at human CCR4 expressed in HEK cells coexpressing CD4+ assessed as inhibition of CCL22 induced Ca2+ mobilization; type: functional, cell-based
readoutKind: IC50 (nM)
API: value field is a number in nM; no unit string.

[ask] GET IC50 where system = C-C chemokine receptor type 4 (Homo sapiens, UniProt P51679) and item = COc1nc(F)cnc1NS(=O)(=O)c1cccc(Cl)c1Cl
[reply] 3.98

---

assay: Oral bioavailability in rat; assay type: ADME, organism-based; details: in vivo
readoutKind: bioavailability (%)
API: value field is a number in %; no unit string.

[ask] Give bioavailability for the following compound: COc1nc(Br)cnc1NS(=O)(=O)c1ccc(Cl)s1
[reply] 45

---

experiment: Lipophilicity, log P of the compound; type: physicochemical; conditions: octanol/water
readoutKind: logP

Example cases with answers are listed next.
CCOc1cnc(NS(=O)(=O)c2cccc(Cl)c2Cl)c(OC)n1 :: 4.1
COc1nc(F)cnc1NS(=O)(=O)c1cccc(Cl)c1Cl :: 3.1
COc1nccnc1NS(=O)(=O)c1scc(Cl)c1Cl :: 2.8
COc1nc(C)cnc1NS(=O)(=O)c1cccc(Cl)c1Cl :: 3
COc1nc(CO)c(C)nc1NS(=O)(=O)c1cccc(Cl)c1Cl :: 2.4
COc1nc(Cl)cnc1NS(=O)(=O)c1cccc(Cl)c1Cl :: 4.1

[ask] Give logP for the following molecule: COc1nccnc1NS(=O)(=O)c1cccc(Cl)c1Cl
[reply] 2.5
